system: somatostatin receptor (Rattus norvegicus)
Construct: SRIF-14 to rat AR42J pancreas membranes; endogenous in cells
Sequence (P30680 whole entry): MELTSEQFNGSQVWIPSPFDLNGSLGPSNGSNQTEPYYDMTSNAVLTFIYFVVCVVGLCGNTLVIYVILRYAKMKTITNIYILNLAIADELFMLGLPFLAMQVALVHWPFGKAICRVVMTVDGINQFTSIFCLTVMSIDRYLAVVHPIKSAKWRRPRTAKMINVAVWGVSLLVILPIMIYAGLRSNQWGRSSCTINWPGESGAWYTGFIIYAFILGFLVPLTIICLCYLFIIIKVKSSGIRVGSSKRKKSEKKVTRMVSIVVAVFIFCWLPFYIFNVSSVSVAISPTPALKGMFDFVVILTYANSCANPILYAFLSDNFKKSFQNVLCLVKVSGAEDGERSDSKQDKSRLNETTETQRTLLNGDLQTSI
protocol: Somatostatin binding assay: in vitro inhibition of binding of [125I-Tyr11]SRIF-14 to rat AR42J pancreas membranes
condition: inhibition of [125I-Tyr11]SRIF-14 binding, read-out: IC50, in vitro binding affinity
Numbered stars: 1 amine (or outer) side, 2 acyl side, 3 side chain; on linkers, the order of the positions; unused ones are H or OH. Bridge positions count the residues as written; N and C are the ends. Square brackets hold non-standard residues; d marks the D form. Peptide text beside a SMILES is read from it. X2 = O=C([C@@H](Cc1ccccc1)N(CC(CO)(CO)CO)[*:1])[*:2]; 2Nal = N[C@@H](Cc1ccc2ccccc2c1)C(=O)O
assayReadout: IC50 (nM)

molecule | result
C[C@@H](O)[C@@H]1NC(=O)[C@H](CCCCN)NC(=O)[C@@H](Cc2c[nH]c3ccccc23)NC(=O)[C@H](Cc2ccc(O)cc2)NC(=O)[C@@H](NC(=O)[C@@H](Cc2ccccc2)NCC(CO)(CO)CO)CSSC[C@@H](C(=O)N[C@@H](Cc2ccc3ccccc3c2)C(N)=O)NC1=O [BIM-23201] (H-[X2]CY[dW]KTC[2Nal]-NH2; disulfide 2-7) | 0.14

[I] CC[C@@H]1NC(=O)[C@H](CCCCN)NC(=O)[C@@H](Cc2c[nH]c3ccccc23)NC(=O)[C@H](Cc2ccc(O)cc2)NC(=O)[C@@H](NC(=O)[C@@H](Cc2ccccc2)NCC(CO)(CO)CO)CSSC[C@@H](C(=O)N[C@H](C(N)=O)[C@@H](C)O)NC1=O
[II] CC[C@@H]1NC(=O)[C@H](CCCCN)NC(=O)[C@@H](Cc2c[nH]c3ccccc23)NC(=O)[C@H](Cc2ccc(O)cc2)NC(=O)[C@@H](NC(=O)[C@@H](Cc2ccccc2)NC(=O)CNC(CO)(CO)CO)CSSC[C@@H](C(=O)N[C@H](C(N)=O)[C@@H](C)O)NC1=O
Of I versus II , which is the one with smaller reported IC50? Mark your answer with the label of the selected entry. I

Where do the numbers come from? From patent US5552520A.
